# assayed_system: T1, cynomolgus CD47, on CHOK1-cCD47 stable cell line (cynomolgus)
# T1 construct: whole, on cells; check before use; also called CHOK1/cynoCD47; monkey-derived CD47
# protocol_summary: FACS CHOK1-cCD47; Ab 1.6 nM
readout_kind: mean fluorescence intensity
Respond with the number and no other words.

Task: I am curious: what mean fluorescence intensity value has been reported for 4D10B11 (antibody, V domains shown, Murine hybridoma antibody purified on protein G) VH: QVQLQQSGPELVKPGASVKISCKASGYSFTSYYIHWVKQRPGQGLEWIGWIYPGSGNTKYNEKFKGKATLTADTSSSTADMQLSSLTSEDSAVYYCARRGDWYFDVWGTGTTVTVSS VL: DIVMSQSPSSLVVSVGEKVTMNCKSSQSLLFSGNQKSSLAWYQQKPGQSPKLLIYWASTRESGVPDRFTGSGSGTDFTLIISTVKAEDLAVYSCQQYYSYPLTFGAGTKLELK ?
Result: 7190

Origin of values: patent US20220017615A1
